// reported T/C for each item listed
- Tested on: L1210 leukemia ip in BDF1 mice, survival T/C
- MEASUREMENT NOTES: NCI In Vivo Anticancer Drug Screen. Data for tumor model L1210 Leukemia (intraperitoneal) in B6D2F1 (BDF1) mice
- CONDITIONS: endpoint: mean survival time; dose: 25.0 mg/kg/injection; schedule: Q01DX009 (ip); vehicle: Klucel (hydroxypropylcellulose) (HPC); higher = longer survival
- Experimental: The antitumor activity of compounds was measured in mice bearing transplantable tumors. Survival or tumor size were measured and the results are expressed as the measurement made in the treated group (T) divided by the measurement made in the vehicle treated control group (C). The tumor model used in this assay is L1210 Leukemia (intraperitoneal) in B6D2F1 (BDF1) mice
Toxic doses and inconclusive results are not listed.

Answered examples (5):
[
  {
    "SMILES STR": "CC[N+](C)(CC)c1ccc(/C=N\\N(C)C)cc1",
    "T/C": "86 % of control"
  },
  {
    "SMILES STR": "Clc1nc2nc(C(Cl)(Cl)Cl)[nH]c2nc1Cl",
    "T/C": "115 % of control"
  },
  {
    "SMILES STR": "O=C(O)/C=C/S(=O)(=O)c1ccc(Cl)cc1",
    "T/C": "97 % of control"
  },
  {
    "SMILES STR": "Nc1[nH]c(=S)ncc1-c1ccccc1Cl",
    "T/C": "97 % of control"
  },
  {
    "SMILES STR": "CCCCCCCCCOc1ccc(C=Nc2ccc(CC)cc2)cc1",
    "T/C": "90 % of control"
  }
]

So what's the measured T/C for this one? CCCCCC[Se][Se]CCCCCC 91 % of control

Query (molecule): NC(=O)N1CCN(CCCN2c3ccccc3Sc3cc(Cl)ccc32)CC1 ; field requested: T/C 115 % of control

* * *

- System: L1210 leukemia ip in BDF1 mice, survival T/C
- MEASUREMENT NOTES: NCI In Vivo Anticancer Drug Screen. Data for tumor model L1210 Leukemia (intraperitoneal) in B6D2F1 (BDF1) mice
- CONDITIONS: endpoint: mean survival time; dose: 400.0 mg/kg/injection; schedule: Q01DX009 (ip); vehicle: saline with Tween-80; higher = longer survival
Inconclusive results and toxic doses are left out.
RECORDED ENDPOINT: T/C

Worked set:
[
  {
    "COMPOUND": "C/C=C/C(=O)Nc1cccc(O)c1",
    "T/C": "93 % of control"
  },
  {
    "COMPOUND": "CNC(=O)C(CCC(=O)OC)NS(=O)(=O)c1ccc(C)cc1 (stereo not drawn)",
    "T/C": "104 % of control"
  },
  {
    "COMPOUND": "O=C(Nc1ccc(Cl)c([N+](=O)[O-])c1)OCCOc1ccccc1",
    "T/C": "106 % of control"
  },
  {
    "COMPOUND": "COc1ccc2c(c1)CC[C@@H]1[C@@H]2CC[C@]2(C)[C@@H](O)C(=O)C[C@@H]12",
    "T/C": "90 % of control"
  },
  {
    "COMPOUND": "O=[N+]([O-])Nc1ccc(C(c2ccc(N[N+](=O)[O-])cc2)c2ccc([N+](=O)[O-])cc2)cc1",
    "T/C": "94 % of control"
  }
]

# get_value(readout= T/C, system= L1210 leukemia ip in BDF1 mice, survival T/C) for CCCCCCCCCCCCCCCC(=O)N(c1ccc(N)cc1)C(C)CCCN(CC)CC (stereo not drawn) 100 % of control

Recall the recorded T/C for Cc1ccc(C)c(-n2nnc3ccccc3c2=O)c1 with L1210 leukemia ip in BDF1 mice, survival T/C and state it. 91 % of control

Request body: readout T/C, system L1210 leukemia ip in BDF1 mice, survival T/C, query Cc1cc(C)c(N(CC(=O)O)S(=O)(=O)c2ccccc2)c(C)c1N(CC(=O)O)S(=O)(=O)c1ccccc1 . Return the value. 97 % of control

Write down the reported T/C of CCOc1ccc(Br)cc1C=O , test system: L1210 leukemia ip in BDF1 mice, survival T/C. 91 % of control

Fill in the recorded T/C for this compound, with L1210 leukemia ip in BDF1 mice, survival T/C as test system: Cc1ccc(S(=O)(=O)NCN2C(=O)c3ccccc3C2=O)cc1 97 % of control

For L1210 leukemia ip in BDF1 mice, survival T/C, provide T/C of Cc1c2c(cc3c1[nH]c1ccccc13)C(c1ccc(Cl)cc1)=NCC2 please. 88 % of control

Hello, I am looking for reported T/C with L1210 leukemia ip in BDF1 mice, survival T/C for O=C(O)c1ccccc1CCl . Could you help? 95 % of control

Which T/C is reported with L1210 leukemia ip in BDF1 mice, survival T/C for this entry: Cc1c2ccccc2c(CSCC(N)C(=O)O)c2ccc3ccccc3c12 (stereo not drawn) ? 87 % of control

* * *

- System: L1210 leukemia ip in BDF1 mice, survival T/C
- MEASUREMENT NOTES: NCI In Vivo Anticancer Drug Screen. Data for tumor model L1210 Leukemia (intraperitoneal) in B6D2F1 (BDF1) mice
- CONDITIONS: endpoint: mean survival time; dose: 100.0 mg/kg/injection; schedule: Q04DX003 (ip); vehicle: Klucel (hydroxypropylcellulose) (HPC); higher = longer survival
Toxic doses and inconclusive results are not listed.
RECORDED ENDPOINT: T/C

These solved cases illustrate the format of a correct answer.
[
  {
    "SMILES STR": "c1ccc(-c2cc3ccccc3[nH]2)nc1",
    "T/C": "95 % of control"
  },
  {
    "SMILES STR": "NC(=O)Cc1ccc2c(c1)[nH]c1ccccc12",
    "T/C": "102 % of control"
  },
  {
    "SMILES STR": "[O-][n+]1c2ccccc2nc2ccccc21",
    "T/C": "98 % of control"
  },
  {
    "SMILES STR": "O=S(=O)(Nc1cc(S(=O)(=O)c2ccccc2)c(NS(=O)(=O)c2ccccc2)cc1Cl)c1ccccc1",
    "T/C": "88 % of control"
  },
  {
    "SMILES STR": "O=c1ccc2cc(Br)ccc2o1",
    "T/C": "97 % of control"
  }
]

Hi! What's the reported T/C for COc1ccc(NC(=S)Nc2ccc(OC)cc2)cc1 on L1210 leukemia ip in BDF1 mice, survival T/C? 103 % of control

# value lookup — system L1210 leukemia ip in BDF1 mice, survival T/C, readout T/C, item CN(C)C(=S)Oc1cc(Cl)c(Cl)cc1Cl 96 % of control

What is its T/C for L1210 leukemia ip in BDF1 mice, survival T/C? Entry: O=C(Nc1ccc(Nc2ccccc2)cc1)Nc1ccc(F)c(Cl)c1 92 % of control

* * *

- System: L1210 leukemia ip in BDF1 mice, survival T/C
- MEASUREMENT NOTES: NCI In Vivo Anticancer Drug Screen. Data for tumor model L1210 Leukemia (intraperitoneal) in B6D2F1 (BDF1) mice
- CONDITIONS: endpoint: mean survival time; dose: 200.0 mg/kg/injection; schedule: Q04DX002 (ip); vehicle: saline with Tween-80; higher = longer survival
- Method: The antitumor activity of compounds was measured in mice bearing transplantable tumors. Survival or tumor size were measured and the results are expressed as the measurement made in the treated group (T) divided by the measurement made in the vehicle treated control group (C). The tumor model used in this assay is L1210 Leukemia (intraperitoneal) in B6D2F1 (BDF1) mice
Toxic doses and inconclusive results are not listed.
Entries and their measured T/C follow.

Worked cases, answers included:
[
  {
    "MOLECULE": "CCCCOC(=O)COc1cc(Cl)c(Cl)cc1Cl",
    "SUBJECT OF TEST": "L1210 leukemia ip in BDF1 mice, survival T/C",
    "T/C": "104 % of control"
  },
  {
    "MOLECULE": "O=C1CCc2c1cccc2[N+](=O)[O-]",
    "SUBJECT OF TEST": "L1210 leukemia ip in BDF1 mice, survival T/C",
    "T/C": "102 % of control"
  },
  {
    "MOLECULE": "COc1n[nH]c(N)n1",
    "SUBJECT OF TEST": "L1210 leukemia ip in BDF1 mice, survival T/C",
    "T/C": "98 % of control"
  },
  {
    "MOLECULE": "CCSCC(C)O (stereo unspecified)",
    "SUBJECT OF TEST": "L1210 leukemia ip in BDF1 mice, survival T/C",
    "T/C": "100 % of control"
  }
]

Please give the measured T/C for this molecule: CCc1cccc(CC)c1NC(=O)Nc1cc(Cl)ccc1C 103 % of control

Would you mind telling me what T/C value was observed for C=CCNC(=S)OCC ? 97 % of control
